Sequence of the target: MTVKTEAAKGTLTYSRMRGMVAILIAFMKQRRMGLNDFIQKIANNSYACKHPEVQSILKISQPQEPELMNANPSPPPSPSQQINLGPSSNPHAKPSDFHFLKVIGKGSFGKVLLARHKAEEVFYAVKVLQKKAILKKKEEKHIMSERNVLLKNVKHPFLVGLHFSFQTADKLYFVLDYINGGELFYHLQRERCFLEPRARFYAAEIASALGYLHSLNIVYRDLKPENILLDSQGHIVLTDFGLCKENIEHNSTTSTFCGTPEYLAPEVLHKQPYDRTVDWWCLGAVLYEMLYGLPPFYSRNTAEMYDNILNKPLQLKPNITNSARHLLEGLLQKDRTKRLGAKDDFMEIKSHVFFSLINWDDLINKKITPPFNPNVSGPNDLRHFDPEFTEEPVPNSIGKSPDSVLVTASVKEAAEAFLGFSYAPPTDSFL
pIC50: −log10 of the molar value.

{"chemical-structure": "C[C@H]1CN(c2c(NC(=O)c3ccc(F)c(-c4c(F)cccc4F)n3)cnc3c2CC[C@H]3O)C[C@@H](N)[C@@H]1O.O=P(O)(O)O", "pIC50": "< 4.70"}

Where do these numbers come from? They come from paper PMC6013247.
